tested on: T-47D breast; assay: NCI tumour cell line growth inhibition, 48 h
measuredEndpoint: TGI

# annotated cases, reported TGI shown
- C=C1OC(=O)[C@]2([C@@H](/C=C/C)C=CC(=O)[C@H]2O)[C@@H]1O: > 100 µM
- COc1cc(C(=O)NC(CCN)(c2ccccc2)c2ccccc2)cc(OC)c1OC: > 31.6 µM
- COc1ccc(C(=O)c2cc(OC)c3c(c2)OCO3)cc1O: > 100 µM

Data request: # get_value(readout='TGI', item= CN1CCN([C@H]2C[C@H]3[C@@H]4CC=C5C[C@@H](N6CCCC6)CC[C@]5(C)[C@H]4CC[C@]3(C)[C@H]2O)CC1 )
Data returned: > 100 µM

Data request: # get_value(readout='TGI', item= O=C(O)c1cc(C(=O)O)nc(C(=O)O)c1 )
Data returned: > 100 µM

Data request: # get_value(readout='TGI', item= COc1ccc(/C=N/c2nc3cc4sc(/N=C/c5ccc(OC)cc5)nc4cc3s2)cc1 )
Data returned: > 100 µM

Data request: # get_value(readout='TGI', item= CNC(=S)Nc1sc2c(c1C#N)CCCC2 )
Data returned: > 75 µM

Data request: # get_value(readout='TGI', item= COC1CC(OC2C(C)OC(OC3C(C)OC(OC4C(C)OC(O[C@H]5CC[C@@]6(C)C(=CC[C@]7(O)[C@@H]6C[C@@H](OC(=O)/C=C(\C)C(C)C)[C@@]6(C)[C@]7(O)CC[C@@]6(O)C(C)=O)C5)CC4OC)CC3OC)CC2OC)OC(C)C1O (stereo partly specified) )
Data returned: > 12.5 µM

Data request: # get_value(readout='TGI', item= CN1CCN(C(=S)N(C(=O)c2cccs2)C2CCCCC2)CC1 )
Data returned: > 100 µM

Data request: # get_value(readout='TGI', item= CCOC(=O)C1(C)CCc2sc(N)c(C#N)c21 (stereo unspecified) )
Data returned: > 100 µM

Data request: # get_value(readout='TGI', item= COc1cc(C[C@@H](C)N)cc(OC)c1 )
Data returned: > 100 µM
